Measured pIC50, listed per entry for reference.
# MEASURED TARGET: human chemokine receptor 2 isoform B (Homo sapiens, UniProt P41597)
# ASSAY REMARKS: Calcium mobilization assay (FLIPR, antagonist activity against MCP-1)
# RUN PARAMETERS: Ca mobilisation assay, CHOK1-CCR2B-A5 cells, inhibition of calcium increase induced by 20 nM MCP-1
As a rule, pIC50 stands for the negative log10 of the concentration, concentration in M.

Example molecules with recorded pIC50:
[
  {
    "MOLECULE": "O=C(/C=C/c1ccc(Cl)c(Cl)c1)N1CCC(=O)N(CCC(=O)N2CCC(O)CC2)CC1",
    "QUANTITY KIND": "pIC50",
    "MEASURED NUMBER": 5.57
  },
  {
    "MOLECULE": "C[C@@H]1CN([C@H](CO)CCC(=O)N2CCC3(CC3)[C@H](O)C2)C(=O)CCN1c1ccc(C(F)(F)F)c(C(F)(F)F)c1",
    "QUANTITY KIND": "pIC50",
    "MEASURED NUMBER": 8.34
  },
  {
    "MOLECULE": "O=C(/C=C/c1ccc(Cl)c(Cl)c1)N1CCC(=O)N(CCC(=O)N2CCCCC2CO)CC1 (racemic)",
    "QUANTITY KIND": "pIC50",
    "MEASURED NUMBER": 5.79
  }
]

Continue with the next molecule.
Prompt: Reported pIC50, molecule O=C(/C=C/c1cccc(Cl)c1)N1CCC(=O)N(C(CO)CC(=O)N2CCC3(CC3)[C@H](O)C2)CC1 (stereo partly shown) : ____
Completion: 6.33

---

# MEASURED TARGET: human chemokine receptor 2 isoform B (Homo sapiens, UniProt P41597)
# Construct: host or cells: CHOK1-CCR2B-A5 cells (CHO-K1)
# Sequence (P41597 1-360 isoform P41597-2): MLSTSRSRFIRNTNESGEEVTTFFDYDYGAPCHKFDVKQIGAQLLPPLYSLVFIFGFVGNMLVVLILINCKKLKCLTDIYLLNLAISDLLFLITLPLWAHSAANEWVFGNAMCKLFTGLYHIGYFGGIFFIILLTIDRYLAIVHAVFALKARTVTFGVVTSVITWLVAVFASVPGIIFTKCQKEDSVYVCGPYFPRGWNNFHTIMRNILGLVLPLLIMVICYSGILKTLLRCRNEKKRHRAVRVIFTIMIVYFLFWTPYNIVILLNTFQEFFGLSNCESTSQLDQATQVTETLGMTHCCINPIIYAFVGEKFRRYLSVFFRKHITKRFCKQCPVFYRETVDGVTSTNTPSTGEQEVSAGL
# ASSAY REMARKS: Calcium mobilization assay (FLIPR, antagonist activity against MCP-1)
# Assay type: cell-based
# RUN PARAMETERS: Ca mobilisation assay, CHOK1-CCR2B-A5 cells, inhibition of calcium increase induced by 20 nM MCP-1
Mark each entry label 1 if its IC50 sits below 50 nM, and label 0 for all others.

Observe how each entry below is paired with its result.
[
  {
    "MOLECULE": "C[C@H]1C(=O)N([C@@H](CCC(=O)N2CCC3(CC3)[C@H](O)C2)C(=O)O)CCN1C(=O)Nc1ccc(C(F)(F)F)c(Cl)c1 [Example 140]",
    "ASSIGNED CATEGORY": "label 0"
  },
  {
    "MOLECULE": "C[C@@H]1C(=O)N(CCCC(=O)N2CCC3(CC3)[C@H](O)C2)[C@@H](C(N)=O)CN1C(=O)Nc1ccc(C(F)(F)F)c(Cl)c1 [Example 150]",
    "ASSIGNED CATEGORY": "label 1"
  },
  {
    "MOLECULE": "O=C(/C=C/c1ccc(Cl)c(Cl)c1)N1CCC(=O)N(CCC(=O)N2CCC(O)(c3cccnc3)CC2)CC1 [Example 77]",
    "ASSIGNED CATEGORY": "label 0"
  },
  {
    "MOLECULE": "C[C@@H]1CN(CCC(=O)N2CCC(C)(O)CC2)C(=O)CCN1C(=O)/C=C/c1cccc(Cl)c1 [Example 102]",
    "ASSIGNED CATEGORY": "label 0"
  },
  {
    "MOLECULE": "C[C@H]1C(=O)N(CCC(=O)N2CCOCC2)CCN1C(=O)Nc1ccc(Cl)c(Cl)c1 [Example 22]",
    "ASSIGNED CATEGORY": "label 0"
  }
]

Prompt: Threshold test, IC50 < 50 nM: C[C@H]1C(=O)N(CCCC(=O)N2CCC3(CC3)[C@H](O)C2)CCN1C(=O)Nc1ccc(Cl)c(OC(F)(F)F)c1 [Example 35]
Completion: label 1
